Reference source for all entries: patent US20110124715A1

TC50, human T-lymphoblastoid CEM cell line, per-entry values.
A number alone suffices; assume µM.

- 5668 (DNA TTGGGGTTGGGG; unmodified DNA) [compound 5668]: 5.2

Prompt: Item: 4721 (CACGGGGTCG; phosphorothioate, further chemistry not given here) [compound 4721] Test system: human T-lymphoblastoid CEM cell line Read-out: TC50 Value: ?
Response: 142

Prompt: Checklist item: TC50 tested on human T-lymphoblastoid CEM cell line, entry 5367 (TTGGGGTTGGGGTTGGGGTTGGGGG; phosphodiester, further chemistry not given here) [compound 5367] , value?
Response: 52

Prompt: Quick check: TC50 on human T-lymphoblastoid CEM cell line, item 5670 (DNA GGGGTTGGGGTTGGGGTTGGGG; unmodified DNA) [compound 5670] ?
Response: 15

Prompt: Recorded TC50 for 5366 (TTGGGGTTGGGGTTGGGGTTGGGGG; phosphorothioate, further chemistry not given here) [compound 5366] with human T-lymphoblastoid CEM cell line, please?
Response: 22

Prompt: Please provide the recorded TC50 for 5669 (DNA GGGGTTGGGGTTGGGG; unmodified DNA) [compound 5669] , tested on human T-lymphoblastoid CEM cell line.
Response: 9.6

* * *

- tested target: human type II phospholipase A2 (Homo sapiens)
- assay remarks: Phospholipase A2 assay, 3H-oleic acid labelled E. coli substrate
- Format: biochemical
- experimental parameters: Table 4; 1 μM
Strand notation (5' to 3'): a small letter for the sugar, then the base; units joined by * are phosphorothioate-linked, units joined directly phosphodiester-linked; [ ] holds rarer units or linkages, { } end groups; capitals alone tell only the bases. d = 2'-deoxy (DNA)
Overview of reported % Inhibition (1 μM) across a group of substances:
Dear colleague, please return just the value in %, with no unit written.

// solved cases for % Inhibition (1 μM) follow
• 3632 (dC*dC*dA*dG*dG*dA*dG*dA*dG*dG*dT*dC*dG*dG*dT*dA*dA*dG*dG*dC*dG) [compound 3632] = 29.2
• 3480 (dT*dT*dG*dC*dT*dT*dT*dA*dT*dT*dC*dA*dG*dA*dA*dG*dA*dG*dA*dC*dC) [compound 3480] = 24.5
• 3473 (dC*dT*dG*dC*dC*dT*dG*dG*dC*dC*dT*dC*dT*dA*dG*dG*dA*dT*dG*dG*dG) [compound 3473] = 25.9
• 3688 (dT*dG*dG*dC*dC*dT*dC*dA*dC*dC*dG*dA*dT*dC*dC*dG*dT*dT*dG*dC*dA) [compound 3688] = 43.1
• 3659 (dT*dG*dC*dT*dC*dC*dT*dC*dC*dT*dT*dG*dG*dT*dG*dG*dC*dT*dC*dT*dC) [compound 3659] = 38.2
• 3471 (dA*dA*dG*dG*dA*dA*dC*dT*dT*dG*dG*dT*dT*dA*dG*dG*dG*dT*dA*dG*dG) [compound 3471] = 34.5

Prompt: Can you share its % Inhibition (1 μM)? I mean this substance: 3665 (dG*dG*dA*dC*dT*dG*dG*dC*dC*dT*dA*dG*dC*dT*dC*dC*dT*dC*dT*dG*dC) [compound 3665]
Response: 45.8

Prompt: % Inhibition (1 μM) lookup needed for 3185 (antisense CAAAGATCATGATCACTGCCA; phosphorothioate, chemistry not fully specified) [compound 3185] , thanks.
Response: 22.7

Prompt: I would be grateful if you could share the reported % Inhibition (1 μM) for 3472 (dT*dG*dG*dG*dT*dG*dA*dG*dG*dG*dA*dT*dG*dC*dT*dT*dT*dC*dT*dG*dC) [compound 3472] .
Response: 69.0

Prompt: If you can, please state the reported % Inhibition (1 μM) value of 3671 (dT*dA*dG*dG*dA*dG*dG*dG*dT*dC*dT*dT*dC*dA*dT*dG*dG*dT*dA*dA*dG) [compound 3671] .
Response: 49.3

Prompt: Can you share its % Inhibition (1 μM)? I mean this substance: 3679 (dA*dG*dT*dA*dG*dG*dC*dC*dT*dG*dG*dA*dA*dG*dG*dA*dA*dA*dT*dT*dT) [compound 3679]
Response: 30.3

Prompt: Could you tell me which % Inhibition (1 μM) is on file for 4149 (dC*dT*dA*dC*dG*dG*dC*dA*dG*dA*dG*dA*dC*dG*dA*dG*dA*dT*dA*dG*dC) [compound 4149] ?
Response: 20.2

Prompt: Endpoint output: % Inhibition (1 μM) of 3475 (dT*dC*dT*dC*dA*dT*dT*dC*dT*dG*dG*dG*dT*dG*dG*dG*dT*dA*dT*dA*dG) [compound 3475] . Value?
Response: 67.0

Prompt: Record request: % Inhibition (1 μM) value, item 3630 (dT*dC*dT*dC*dA*dT*dA*dC*dC*dC*dT*dC*dC*dC*dT*dC*dC*dC*dT*dA*dC) [compound 3630]
Response: 17.6

* * *

- Test system: human cytomegalovirus (HCMV)
- Format: cell-based
pIC50: −log10 of the molar value.
readout name: pIC50

Prompt: GET /values?readout=pIC50&item= 5367 (TTGGGGTTGGGGTTGGGGTTGGGGG; phosphodiester, further chemistry not given here) [compound 5367]
Response: < 5.70

* * *

Listed here: items and their measured % Inhibition (1 μM).
- tested target: human type II phospholipase A2 (Homo sapiens, UniProt P14555)
- assay remarks: Phospholipase A2 assay, 3H-oleic acid labelled E. coli substrate
- Type: biochemical
- experimental parameters: Table 4; 1 μM
Strand notation (5' to 3'): a small letter for the sugar, then the base; units joined by * are phosphorothioate-linked, units joined directly phosphodiester-linked; [ ] holds rarer units or linkages, { } end groups; capitals alone tell only the bases. d = 2'-deoxy (DNA)
Give just the numeric value; % need not be written.

• 3663 (dC*dT*dC*dT*dG*dC*dT*dG*dG*dG*dT*dG*dG*dT*dC*dT*dC*dA*dA*dC*dT) [compound 3663] = 16.3
• 3182 (antisense dC*dA*dG*dA*dG*dG*dA*dC*dT*dC*dC*dA*dG*dA*dG*dT*dT*dG*dT*dA*dT) [compound 3182] = 30.2
• 3481 (dT*dT*dT*dT*dT*dG*dA*dT*dT*dT*dG*dC*dT*dA*dA*dT*dT*dG*dC*dT*dT) [compound 3481] = 2.2
• 3669 (dG*dG*dT*dG*dA*dC*dA*dA*dA*dT*dG*dC*dA*dG*dA*dT*dG*dG*dA*dC*dT) [compound 3669] = 34.7
• 3477 (dG*dT*dG*dG*dA*dG*dG*dA*dG*dA*dG*dC*dA*dG*dT*dA*dG*dA*dA*dG*dG) [compound 3477] = 54.7
• 3629 (dC*dA*dC*dC*dC*dC*dT*dC*dG*dT*dT*dG*dC*dT*dG*dA*dG*dT*dC*dC*dC) [compound 3629] = 20.5
• 3193 (dC*dC*dT*dG*dC*dA*dG*dT*dA*dG*dG*dC*dC*dT*dG*dG*dA*dA*dG*dG*dA) [compound 3193] = 22.6
• 3694 (dA*dC*dA*dG*dC*dA*dG*dC*dT*dG*dT*dG*dA*dG*dG*dA*dG*dA*dC*dA*dC) [compound 3694] = 28.2

Prompt: Given 3676 (dA*dG*dC*dT*dC*dT*dT*dA*dC*dC*dA*dA*dA*dG*dA*dT*dC*dA*dT*dG*dA) [compound 3676] , state its recorded % Inhibition (1 μM).
Response: 24.5

Prompt: % Inhibition (1 μM) lookup needed for 3478 (dT*dG*dG*dT*dT*dA*dA*dG*dC*dA*dC*dG*dG*dA*dG*dT*dT*dG*dA*dG*dG) [compound 3478] , thanks.
Response: 26.4

* * *

A collection of substances and their measured % Inhibition (1 μM)
- tested target: human type II phospholipase A2 (Homo sapiens)
- Sequence (P14555 21-144): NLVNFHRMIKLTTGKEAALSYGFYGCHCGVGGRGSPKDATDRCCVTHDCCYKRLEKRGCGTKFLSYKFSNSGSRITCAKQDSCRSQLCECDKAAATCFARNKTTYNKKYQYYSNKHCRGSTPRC
- assay remarks: Phospholipase A2 assay, 3H-oleic acid labelled E. coli substrate
- Type: biochemical
- experimental parameters: Table 4; 1 μM
Strand notation (5' to 3'): a small letter for the sugar, then the base; units joined by * are phosphorothioate-linked, units joined directly phosphodiester-linked; [ ] holds rarer units or linkages, { } end groups; capitals alone tell only the bases. d = 2'-deoxy (DNA)
Give just the numeric value; % need not be written.

Known % Inhibition (1 μM) results, listed for orientation:
• 3181 (antisense dT*dC*dT*dG*dC*dC*dC*dC*dG*dG*dC*dC*dG*dT*dC*dG*dC*dT*dC*dC*dC) [compound 3181] = 42.7
• 3196 (dG*dG*dG*dT*dG*dG*dG*dT*dA*dT*dA*dG*dA*dA*dG*dG*dG*dC*dT*dC*dC) [compound 3196] = 98.5
• 3479 (dC*dC*dG*dG*dA*dG*dT*dA*dC*dA*dG*dC*dT*dT*dC*dT*dT*dT*dG*dG*dT) [compound 3479] = 42.3

Prompt: Tell me the measured % Inhibition (1 μM) of 3631 (dA*dG*dG*dT*dC*dG*dA*dG*dG*dA*dG*dT*dG*dG*dT*dC*dT*dG*dA*dG*dC) [compound 3631] , please.
Response: 20.7
